MEASUREMENT DESCRIPTION: Measurement of acid dissociation constant (pKa) by titration in methanol
Format: physicochemical
ASSAY CONDITIONS: 25° C.; 1 part by weight acid in 99 parts methanol titrated with 0.1 mol/L methanolic potassium hydroxide; pH at half the titrant of first equivalence point
REPORTED METRIC: Acid dissociation constant (pKa)
Form: value (number only, do not type unit).

>  <COMPOUND>
O=C(O)c1cc(C(=O)O)c(C(=O)OCCO)cc1C(=O)O [Example A5]

>  <MEASURED RESULT>
2.6

$$$$
>  <COMPOUND>
CCCCCCCCCCOC(=O)c1ccccc1C(=O)O [Example A10, phthalic acid n-decanol monoester]

>  <MEASURED RESULT>
3.9

$$$$
>  <COMPOUND>
O=C(O)c1c(C(=O)O)c(C(=O)O)c(C(=O)OCCO)c(C(=O)O)c1C(=O)O [Example A7, mellitic acid ethylene glycol monoester]

>  <MEASURED RESULT>
1.7

$$$$
>  <COMPOUND>
O=C(O)c1ccccc1C(=O)OCCO [Example A1, phthalic acid ethylene glycol monoester]

>  <MEASURED RESULT>
3.8

$$$$

Continue with the next compound.
**Q:** Which Acid dissociation constant (pKa) value is on record for O=C(O)c1ccccc1C(=O)OCCCCCCCCCCO [Example A11, phthalic acid 1,10-decanediol monoester] ?
**A:** 4.0
